system: PXR homodimer (NR concentration 270 nM); assay: PBM binding z-score (relative to random genomic background probes); higher = stronger binding; sequences stand for … in GC…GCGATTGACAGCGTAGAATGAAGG

[
  {
    "item_sequence": "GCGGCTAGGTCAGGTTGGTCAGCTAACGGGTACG",
    "target_under_test": "PXR homodimer (NR concentration 270 nM)",
    "PBM binding z-score": -0.293
  },
  {
    "item_sequence": "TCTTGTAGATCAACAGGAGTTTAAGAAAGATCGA",
    "target_under_test": "PXR homodimer (NR concentration 270 nM)",
    "PBM binding z-score": -0.0735
  },
  {
    "item_sequence": "CCTTACGGGTCACGAGGTTATAGCTCGACGAGCG",
    "target_under_test": "PXR homodimer (NR concentration 270 nM)",
    "PBM binding z-score": -0.0531
  },
  {
    "item_sequence": "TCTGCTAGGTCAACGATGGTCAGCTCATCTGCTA",
    "target_under_test": "PXR homodimer (NR concentration 270 nM)",
    "PBM binding z-score": -1.45
  },
  {
    "item_sequence": "ATATGAAGGTTAGCTGGGGTCATTCAGACTAGGC",
    "target_under_test": "PXR homodimer (NR concentration 270 nM)",
    "PBM binding z-score": 5
  },
  {
    "item_sequence": "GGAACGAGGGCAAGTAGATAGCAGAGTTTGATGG",
    "target_under_test": "PXR homodimer (NR concentration 270 nM)",
    "PBM binding z-score": 0.589
  },
  {
    "item_sequence": "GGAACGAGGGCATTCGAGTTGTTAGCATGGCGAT",
    "target_under_test": "PXR homodimer (NR concentration 270 nM)",
    "PBM binding z-score": 0.576
  },
  {
    "item_sequence": "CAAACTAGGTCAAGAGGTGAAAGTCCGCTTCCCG",
    "target_under_test": "PXR homodimer (NR concentration 270 nM)",
    "PBM binding z-score": 0.369
  },
  {
    "item_sequence": "ATCTCTAGCTAAAGATAGTTCAGTGAATGCAAAT",
    "target_under_test": "PXR homodimer (NR concentration 270 nM)",
    "PBM binding z-score": 0.542
  },
  {
    "item_sequence": "ACAGACAGGTGATGAAGGTAACTCAAGCTATCAT",
    "target_under_test": "PXR homodimer (NR concentration 270 nM)",
    "PBM binding z-score": 0.00644
  },
  {
    "item_sequence": "GCATATAGCTAATACAAGGTGAAAGTCCGATTGT",
    "target_under_test": "PXR homodimer (NR concentration 270 nM)",
    "PBM binding z-score": 0.241
  },
  {
    "item_sequence": "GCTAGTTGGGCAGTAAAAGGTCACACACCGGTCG",
    "target_under_test": "PXR homodimer (NR concentration 270 nM)",
    "PBM binding z-score": 1.13
  },
  {
    "item_sequence": "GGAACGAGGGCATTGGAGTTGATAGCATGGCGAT",
    "target_under_test": "PXR homodimer (NR concentration 270 nM)",
    "PBM binding z-score": 0.836
  },
  {
    "item_sequence": "TCGAGTAGGTTATTCGGGGCATTCAGCCAACATA",
    "target_under_test": "PXR homodimer (NR concentration 270 nM)",
    "PBM binding z-score": 0.669
  },
  {
    "item_sequence": "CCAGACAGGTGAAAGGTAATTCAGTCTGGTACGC",
    "target_under_test": "PXR homodimer (NR concentration 270 nM)",
    "PBM binding z-score": -0.138
  },
  {
    "item_sequence": "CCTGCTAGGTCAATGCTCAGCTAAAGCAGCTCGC",
    "target_under_test": "PXR homodimer (NR concentration 270 nM)",
    "PBM binding z-score": -0.943
  },
  {
    "item_sequence": "CCTATTAGTTGACCATAAGGGCAAGCGAAGCTCG",
    "target_under_test": "PXR homodimer (NR concentration 270 nM)",
    "PBM binding z-score": 0.56
  },
  {
    "item_sequence": "CCTTACGGTTCACTCCAGGTTATAGCATCGGAGT",
    "target_under_test": "PXR homodimer (NR concentration 270 nM)",
    "PBM binding z-score": 1.46
  },
  {
    "item_sequence": "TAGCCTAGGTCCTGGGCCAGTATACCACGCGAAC",
    "target_under_test": "PXR homodimer (NR concentration 270 nM)",
    "PBM binding z-score": -0.893
  },
  {
    "item_sequence": "AGAATGTGGTTACCAAAGATCAGGGAAACGCTTG",
    "target_under_test": "PXR homodimer (NR concentration 270 nM)",
    "PBM binding z-score": -0.342
  },
  {
    "item_sequence": "CGAGACAGGTGAGAAGGTAACTCAGCCTCGATTA",
    "target_under_test": "PXR homodimer (NR concentration 270 nM)",
    "PBM binding z-score": -0.255
  },
  {
    "item_sequence": "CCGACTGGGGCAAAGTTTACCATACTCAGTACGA",
    "target_under_test": "PXR homodimer (NR concentration 270 nM)",
    "PBM binding z-score": 0.0528
  },
  {
    "item_sequence": "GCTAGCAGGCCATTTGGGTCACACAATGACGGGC",
    "target_under_test": "PXR homodimer (NR concentration 270 nM)",
    "PBM binding z-score": 0.00293
  },
  {
    "item_sequence": "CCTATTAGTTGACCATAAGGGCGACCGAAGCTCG",
    "target_under_test": "PXR homodimer (NR concentration 270 nM)",
    "PBM binding z-score": 0.541
  },
  {
    "item_sequence": "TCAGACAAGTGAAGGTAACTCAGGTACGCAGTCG",
    "target_under_test": "PXR homodimer (NR concentration 270 nM)",
    "PBM binding z-score": -0.105
  },
  {
    "item_sequence": "GGAACGAGTGCAAGTTGATAGCAGAGTTTGATGG",
    "target_under_test": "PXR homodimer (NR concentration 270 nM)",
    "PBM binding z-score": 1.16
  },
  {
    "item_sequence": "ACAGACACGTGATGAAGGTAACTCAGGCTATCAT",
    "target_under_test": "PXR homodimer (NR concentration 270 nM)",
    "PBM binding z-score": 0.0203
  },
  {
    "item_sequence": "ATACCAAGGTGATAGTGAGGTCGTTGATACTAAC",
    "target_under_test": "PXR homodimer (NR concentration 270 nM)",
    "PBM binding z-score": 1.94
  },
  {
    "item_sequence": "AGTCAAAGTTCAGGACCAGGTAACGTAAAGCACG",
    "target_under_test": "PXR homodimer (NR concentration 270 nM)",
    "PBM binding z-score": 1.19
  },
  {
    "item_sequence": "GGAACGAGGGAAAGTTGATAGCAGAGTTTGATGG",
    "target_under_test": "PXR homodimer (NR concentration 270 nM)",
    "PBM binding z-score": 0.056
  },
  {
    "item_sequence": "ATATGTAGGTTATCCGGTCATTCAGTTTGCGCAT",
    "target_under_test": "PXR homodimer (NR concentration 270 nM)",
    "PBM binding z-score": 1.86
  },
  {
    "item_sequence": "CCTGCTAGGTCAATGGTCAGTTAAAGCAGCTCGC",
    "target_under_test": "PXR homodimer (NR concentration 270 nM)",
    "PBM binding z-score": -0.135
  },
  {
    "item_sequence": "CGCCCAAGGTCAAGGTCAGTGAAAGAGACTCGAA",
    "target_under_test": "PXR homodimer (NR concentration 270 nM)",
    "PBM binding z-score": 0.538
  },
  {
    "item_sequence": "ATAGAAAGGTCGACGAGGTGAGTATACACCGTTT",
    "target_under_test": "PXR homodimer (NR concentration 270 nM)",
    "PBM binding z-score": 0.566
  },
  {
    "item_sequence": "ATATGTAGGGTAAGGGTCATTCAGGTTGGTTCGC",
    "target_under_test": "PXR homodimer (NR concentration 270 nM)",
    "PBM binding z-score": 4.86
  },
  {
    "item_sequence": "ACTATTAGTTGAGACCAGGGCAACCGATAGGTTG",
    "target_under_test": "PXR homodimer (NR concentration 270 nM)",
    "PBM binding z-score": 0.236
  },
  {
    "item_sequence": "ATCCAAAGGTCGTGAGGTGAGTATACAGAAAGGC",
    "target_under_test": "PXR homodimer (NR concentration 270 nM)",
    "PBM binding z-score": 0.629
  },
  {
    "item_sequence": "AACGAAAGGTCGTGAGGTGAGTATACAGAAAGGC",
    "target_under_test": "PXR homodimer (NR concentration 270 nM)",
    "PBM binding z-score": 0.132
  },
  {
    "item_sequence": "CCTAGCAGGCCAGGGTGACTCAAGCATTTCGCTT",
    "target_under_test": "PXR homodimer (NR concentration 270 nM)",
    "PBM binding z-score": -0.777
  },
  {
    "item_sequence": "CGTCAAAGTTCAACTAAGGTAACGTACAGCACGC",
    "target_under_test": "PXR homodimer (NR concentration 270 nM)",
    "PBM binding z-score": 4.77
  },
  {
    "item_sequence": "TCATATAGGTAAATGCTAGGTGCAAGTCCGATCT",
    "target_under_test": "PXR homodimer (NR concentration 270 nM)",
    "PBM binding z-score": 0.449
  },
  {
    "item_sequence": "ACTTACGGGTCAACGAGGATATAGCACGCGTATA",
    "target_under_test": "PXR homodimer (NR concentration 270 nM)",
    "PBM binding z-score": 0.678
  },
  {
    "item_sequence": "TGAATGAGGTTATAAGATCAGAGAACGTTGCAAA",
    "target_under_test": "PXR homodimer (NR concentration 270 nM)",
    "PBM binding z-score": -0.71
  },
  {
    "item_sequence": "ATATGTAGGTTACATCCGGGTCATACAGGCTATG",
    "target_under_test": "PXR homodimer (NR concentration 270 nM)",
    "PBM binding z-score": 1.19
  },
  {
    "item_sequence": "ACTATTAGTTGACTTAGGGCAACCGCTACGACGC",
    "target_under_test": "PXR homodimer (NR concentration 270 nM)",
    "PBM binding z-score": -0.0423
  },
  {
    "item_sequence": "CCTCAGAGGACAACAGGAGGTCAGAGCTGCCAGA",
    "target_under_test": "PXR homodimer (NR concentration 270 nM)",
    "PBM binding z-score": 0.295
  },
  {
    "item_sequence": "GCTAGATGGTCAGTAAAAGGTCACACACCGGTCG",
    "target_under_test": "PXR homodimer (NR concentration 270 nM)",
    "PBM binding z-score": 0.89
  },
  {
    "item_sequence": "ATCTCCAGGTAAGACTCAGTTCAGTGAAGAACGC",
    "target_under_test": "PXR homodimer (NR concentration 270 nM)",
    "PBM binding z-score": 1.36
  },
  {
    "item_sequence": "TGAATGAGGTTATAAGACCAGGGAACGTTGCAAA",
    "target_under_test": "PXR homodimer (NR concentration 270 nM)",
    "PBM binding z-score": -0.0148
  },
  {
    "item_sequence": "CTTCAAAGTTCAAGGTAACGTAACAGAAAGCAGC",
    "target_under_test": "PXR homodimer (NR concentration 270 nM)",
    "PBM binding z-score": 2.67
  },
  {
    "item_sequence": "GCGACTGGGGCAAAGCGGGTTACCATAAGGTTGG",
    "target_under_test": "PXR homodimer (NR concentration 270 nM)",
    "PBM binding z-score": -0.451
  }
]

Value source: the supplement of paper PMC6555819
